- System: DU-145
- Experiment: NCI tumour cell line growth inhibition, 48 h
Active and inactive are the calls of the source. Rule as the data show it: active = GI50 up to about 1.1 µM and inactive = higher.
Parameter measured: GI50

# example entries with known answers
S=C(NCCc1ccccn1)c1nc[nH]c1C(=S)NCCc1ccccn1 = 30.8 µM (inactive)
Cn1c2ccccc2n2c3ccccc3c3nnc(N)c-3c12 = 33.7 µM (inactive)
NS(=O)(=O)c1ccc(-c2ccc([As](=O)(O)O)cc2)cc1 = > 100 µM (inactive)
O=C(Nc1c(C(F)(F)F)cc(-c2ccccc2)[nH]c1=O)N1CCOCC1 = > 100 µM (inactive)
CC(C)(C)OC(=O)NCC(CNC(=O)OC(C)(C)C)C(N)=O = > 100 µM (inactive)

Items follow; give GI50 for each.
1. CN1CCOC1(C)c1ccccc1 (stereo not drawn)
2. Cn1c2c(c3ccccc3c1=O)C(=O)c1ccccc1-2
3. CCCCCCCCCCC(O)C1CCC(C(O)CCC(O)C2CCC(CCCCCCC[C@H](O)CC3=C[C@@H](C)OC3=O)O2)O1 (stereo partly drawn)

> 100 µM (inactive)
> 100 µM (inactive)
> 10 µM (inactive)

====

- Test system: UACC-257
- Experiment: NCI tumour cell line growth inhibition, 48 h
Activity calls are given as the source filed them. No stated cut-off is given here; in the data, active = GI50 up to about 1.1 µM and inactive = higher.
Kindly state GI50 for each of the entries shown.

Guide cases for GI50, answers given:
COc1ccc(/N=N/c2c(-c3ccccc3)nn(C(=O)CC(=O)Nc3ccccc3Cl)c2-c2ccccc2)cc1 = > 100 µM (inactive)
CCOC(=O)C1=NN(c2ccc(Cl)cc2)C2=CC(C)=NN(C)C(=S)N21 = > 100 µM (inactive)
Cc1ccc2c3c1[C@@H]1O[C@@H]1c1cccc(c1-3)[C@@H]1O[C@H]21 = 15.9 µM (inactive)

Provide each entry's GI50 from the list below.
1. FC(F)(F)C1(C(F)(F)F)O[Si]2(OC(C(F)(F)F)(C(F)(F)F)c3ccccc32)c2ccccc21
2. C#CCNCC(=O)O
3. Cc1ccc(S(=O)(=O)NC(=O)OC23COCN2COC3)cc1

["18 µM (inactive)", "> 100 µM (inactive)", "> 100 µM (inactive)"]

Batch lookup, GI50 per entry.
1. NCCCCC(=O)c1cccnc1
2. CCOC(=N)CC(=O)c1ccccc1

1. > 100 µM (inactive)
2. > 100 µM (inactive)

====

- System: SNB-19
- Experiment: NCI tumour cell line growth inhibition, 48 h
Calls of active or inactive are those of the source. Cut-off read from the data, not from the text of the source: active = GI50 up to about 1.1 µM and inactive = higher.
Please respond with reported GI50 for every item in the list.

Field: example entries. Status: answers known.
O=C1c2c(ccc3c2CCC3)CC1Cc1ccc2c(c1)CCC2 (stereo unspecified) = 48.5 µM (inactive)
O=C(/C=C/c1ccc(O)cc1)NCCc1ccc(O)cc1 = > 12.5 µM (inactive)
O=C1CCSC(=S)N1c1ccc(Br)c(Cl)c1 = 23.7 µM (inactive)
O=C(CNc1ccc2c(=S)c3ccccc3[nH]c2c1)Nc1ccccc1-c1ccccc1NC(=O)CNc1ccc2c(=S)c3ccccc3[nH]c2c1 = 17.2 µM (inactive)

Give one value of GI50 per listed compound.
1. O=c1cc(NNc2cccc(Cl)c2)[nH]c(=O)[nH]1
2. O=C1CC2(c3ccccc3)ON=C(c3ccccc3)N2c2ccccc2N1 (stereo unspecified)

["46.3 µM (inactive)", "> 100 µM (inactive)"]

====

- Tested on: EKVX
- Experiment: NCI tumour cell line growth inhibition, 48 h
Calls of active or inactive are those of the source. Cut-off read from the data, not from the text of the source: active = GI50 up to about 1.1 µM and inactive = higher.
Result category, one only: true (1) (active), false (0) (inactive)

Worked set:
C/C(=N\Nc1nc2ccccc2o1)c1cccc[n+]1[O-] = false (0)
Cc1nc2ccccc2c(=O)n1NC(=O)c1ccc(CS)cc1 = false (0)
CC(=O)C1=C(C)N2C(=NC3=C(CCc4ccccc43)C2c2cccc(Br)c2)S1 (stereo not given) = false (0)
COC(=O)CCCc1ccc2c(c1)CC1(Cc3ccccc3C1)C2 = false (0)
O=C(Nc1c(C(F)(F)F)cc(-c2ccccc2)[nH]c1=O)N1CCOCC1 = false (0)

Identify the outcome logged in this assay for the molecule shown: O=C(CC(O)(c1ccccc1)c1ccc(Cl)cc1)NC(=O)c1ccccc1O (stereo not given)
false (0)

// same read-out, input: CCOC(=O)Cc1csc(N/N=C2\C(=O)Nc3ccccc32)n1
false (0)

Again, but for O=S1(=O)CC#CC[C@@H](CO)[C@@H](CO)CC#CC1
false (0)

Please answer likewise for Fc1ccc(OCc2ccc3nc(-c4ccccc4)c(Cl)nc3c2)cc1
false (0)

Moving on to CC(C)(C)OC(=O)N1CC(O)O[C@H](c2ccccc2)[C@@H]1c1ccccc1 (stereo not given in full)
false (0)

Cool, now Cc1cc(O)c2c(c1O)C(=O)C13C(=C(O)C4C(O)C1C1C(O)C3C(O)=C3C(=O)c5c(O)cc(C)c(O)c5C(=O)C341)C2=O (stereo not given)
true (1)

Now give it for O=C(c1ccccc1)c1ccc(N2C(=O)/C(=C/Cc3ccco3)N=C2c2ccccc2)c(N2C(=O)/C(=C/Cc3ccco3)N=C2c2ccccc2)c1 too.
false (0)

Next record, please: O=P1(c2ccccc2)C(c2ccccc2)CCC1c1ccccc1 (stereo not given)
false (0)

Next up: O=C(O)c1cc(/C=C/c2ccc(O)c(O)c2)ccc1O
false (0)

Also CCC(C)C1=C(OC(C)=O)[N+]2([O-])Oc3ccc(-c4c(OC(C)=O)c(OC(C)=O)c(-c5ccc(OC(C)=O)cc5)c(OC(C)=O)c4OC(C)=O)cc3OC2(C(C)CC)C(=O)N1OC(C)=O (stereo not given) ?
false (0)

Let us now turn to Sc1cnnc2ccc(Br)cc12
false (0)

Could you do the same for CSCCC(NC(=O)OC(C)(C)C)C(=O)NCCNc1ccc(NCCNC(=O)C(CCSC)NC(=O)OC(C)(C)C)c2c1C(=O)c1ccccc1C2=O (stereo not given) , please?
false (0)

Now this one: Oc1cccc(-c2cccc(O)n2)n1
false (0)

Please answer likewise for COC12OCCN(CCO)C1=CC(=O)C1(C)N=NC(C)C12 (stereo not given)
false (0)

Then CC1O[C@@H]2CCCCC(=O)[C@]2(C)[C@H]1C (stereo not given in full) ?
false (0)
